biological target: Q46 protein aggregates (Homo sapiens, UniProt P42858); construct: fused on or other part: GST at the N-terminus, cut off with thrombin before the test to start aggregation; The wells held aggregated Q46 without GST; experiment: Q46 radioligand binding assay (RBA); conditions: 10 nM ligand [3H3]MK-3328
Sequence (P42858 with tags, fused parts or gaps with the stated changes, form open): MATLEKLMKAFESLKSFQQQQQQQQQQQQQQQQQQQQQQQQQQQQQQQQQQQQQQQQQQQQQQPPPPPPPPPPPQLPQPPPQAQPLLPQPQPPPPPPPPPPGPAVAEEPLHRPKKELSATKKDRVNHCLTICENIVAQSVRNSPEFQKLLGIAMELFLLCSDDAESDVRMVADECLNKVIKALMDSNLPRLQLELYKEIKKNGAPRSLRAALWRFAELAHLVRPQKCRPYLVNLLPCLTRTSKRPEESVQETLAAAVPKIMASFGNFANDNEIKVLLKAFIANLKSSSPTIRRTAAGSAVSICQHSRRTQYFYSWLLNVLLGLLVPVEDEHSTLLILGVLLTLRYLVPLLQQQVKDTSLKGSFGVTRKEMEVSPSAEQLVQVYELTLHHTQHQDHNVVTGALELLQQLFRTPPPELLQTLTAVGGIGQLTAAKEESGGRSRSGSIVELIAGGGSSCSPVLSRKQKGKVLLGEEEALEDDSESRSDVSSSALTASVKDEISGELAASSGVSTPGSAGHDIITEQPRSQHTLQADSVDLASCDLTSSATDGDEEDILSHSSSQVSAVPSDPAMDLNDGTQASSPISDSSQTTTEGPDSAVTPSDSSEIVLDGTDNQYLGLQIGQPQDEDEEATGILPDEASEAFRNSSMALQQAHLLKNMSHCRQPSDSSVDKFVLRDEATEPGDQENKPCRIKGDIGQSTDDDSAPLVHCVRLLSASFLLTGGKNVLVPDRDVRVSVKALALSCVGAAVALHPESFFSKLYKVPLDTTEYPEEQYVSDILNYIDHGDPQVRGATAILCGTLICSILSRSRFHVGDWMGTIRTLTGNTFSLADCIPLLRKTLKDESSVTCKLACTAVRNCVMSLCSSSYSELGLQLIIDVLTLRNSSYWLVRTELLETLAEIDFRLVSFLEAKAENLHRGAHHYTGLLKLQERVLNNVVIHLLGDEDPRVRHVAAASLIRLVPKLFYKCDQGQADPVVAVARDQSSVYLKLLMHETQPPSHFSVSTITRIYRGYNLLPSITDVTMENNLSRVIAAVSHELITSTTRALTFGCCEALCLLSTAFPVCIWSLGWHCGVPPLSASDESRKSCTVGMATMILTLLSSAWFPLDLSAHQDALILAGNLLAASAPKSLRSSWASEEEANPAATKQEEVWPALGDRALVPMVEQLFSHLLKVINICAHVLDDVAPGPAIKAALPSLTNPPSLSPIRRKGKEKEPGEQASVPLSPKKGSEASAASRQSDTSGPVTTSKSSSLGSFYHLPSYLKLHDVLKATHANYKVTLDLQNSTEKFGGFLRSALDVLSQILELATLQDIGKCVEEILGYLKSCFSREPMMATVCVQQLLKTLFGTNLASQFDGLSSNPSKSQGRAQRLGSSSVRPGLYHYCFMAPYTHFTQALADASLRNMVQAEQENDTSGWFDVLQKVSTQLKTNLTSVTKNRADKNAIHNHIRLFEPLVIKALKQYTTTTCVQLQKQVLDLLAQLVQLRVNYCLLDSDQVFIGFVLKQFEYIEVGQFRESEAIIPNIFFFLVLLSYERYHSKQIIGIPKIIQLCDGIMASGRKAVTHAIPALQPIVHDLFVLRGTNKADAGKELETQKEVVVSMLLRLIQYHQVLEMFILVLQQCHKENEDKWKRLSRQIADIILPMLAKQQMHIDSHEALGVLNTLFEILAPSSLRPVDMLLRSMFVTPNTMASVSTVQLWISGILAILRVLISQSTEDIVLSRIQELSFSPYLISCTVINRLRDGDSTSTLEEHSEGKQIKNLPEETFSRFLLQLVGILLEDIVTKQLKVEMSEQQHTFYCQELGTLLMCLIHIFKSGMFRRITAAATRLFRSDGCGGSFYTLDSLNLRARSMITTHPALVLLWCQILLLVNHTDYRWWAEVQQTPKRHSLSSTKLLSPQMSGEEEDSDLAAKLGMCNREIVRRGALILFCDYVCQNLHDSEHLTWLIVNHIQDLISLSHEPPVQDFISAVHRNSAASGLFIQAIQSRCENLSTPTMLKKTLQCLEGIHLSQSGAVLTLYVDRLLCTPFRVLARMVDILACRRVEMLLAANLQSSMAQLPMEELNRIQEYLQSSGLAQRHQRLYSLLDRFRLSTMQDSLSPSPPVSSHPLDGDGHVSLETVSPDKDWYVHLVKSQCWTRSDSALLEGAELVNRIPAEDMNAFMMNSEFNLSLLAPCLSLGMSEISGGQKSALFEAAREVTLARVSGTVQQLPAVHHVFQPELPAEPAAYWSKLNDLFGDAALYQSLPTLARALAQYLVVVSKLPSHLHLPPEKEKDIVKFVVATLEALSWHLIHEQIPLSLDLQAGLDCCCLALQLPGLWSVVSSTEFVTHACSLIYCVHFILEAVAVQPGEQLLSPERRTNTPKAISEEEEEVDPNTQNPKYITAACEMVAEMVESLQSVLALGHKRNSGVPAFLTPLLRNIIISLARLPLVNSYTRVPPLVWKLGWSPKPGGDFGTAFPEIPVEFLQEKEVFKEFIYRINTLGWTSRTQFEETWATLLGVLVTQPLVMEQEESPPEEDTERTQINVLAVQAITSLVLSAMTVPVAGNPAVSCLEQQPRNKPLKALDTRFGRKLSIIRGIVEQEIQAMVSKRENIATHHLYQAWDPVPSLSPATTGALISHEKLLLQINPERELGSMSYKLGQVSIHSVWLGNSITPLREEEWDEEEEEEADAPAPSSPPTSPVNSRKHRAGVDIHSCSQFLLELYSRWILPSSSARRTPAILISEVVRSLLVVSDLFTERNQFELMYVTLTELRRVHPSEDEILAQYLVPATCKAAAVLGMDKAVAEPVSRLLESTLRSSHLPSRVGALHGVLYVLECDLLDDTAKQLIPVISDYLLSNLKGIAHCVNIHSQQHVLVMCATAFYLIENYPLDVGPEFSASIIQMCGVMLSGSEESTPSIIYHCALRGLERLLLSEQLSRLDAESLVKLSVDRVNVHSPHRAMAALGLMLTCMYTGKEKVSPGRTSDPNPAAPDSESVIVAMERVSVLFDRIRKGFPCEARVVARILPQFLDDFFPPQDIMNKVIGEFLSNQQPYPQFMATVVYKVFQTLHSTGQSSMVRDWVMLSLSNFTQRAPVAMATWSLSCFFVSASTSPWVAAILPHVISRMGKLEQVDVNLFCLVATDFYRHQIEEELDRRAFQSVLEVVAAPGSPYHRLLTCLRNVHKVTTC
pIC50: −log10 of the molar value.
Listed here: items and their measured pIC50.

Illustrative cases are given below, each with its answer.
COc1cnc(C(=O)Nc2ccc3oc(-c4cccc(C)c4)nc3c2)cn1 | > 7.00
Cn1cnc(COc2ccc3oc(-c4ccncc4C#N)cc3c2)c1 | > 7.00
Cn1cc(COc2ccc3oc(-c4cccnc4)nc3c2)ncc1=O | 6.30 to 7.00

Lookup: For "COc1ccc(C(=O)Nc2ccc3oc(-c4cccnc4)nc3c2)cc1" , what is its reported pIC50?
Found: > 7.00

Lookup: Please do the same for "COc1ccc(OCc2ccc3oc(-c4cccnc4)nc3c2)nc1" as well.
Found: > 7.00

Lookup: Please do the same for "COc1ccc(-c2ccc3oc(-c4cccnc4)nc3c2)nn1" as well.
Found: > 7.00

Lookup: Please do the same for "COc1cccc(COc2ccc3oc(-c4cccnc4)nc3c2)c1" as well.
Found: > 7.00

Lookup: Please do the same for "N#Cc1ccncc1-c1cc2cc(OCc3cccnc3)ccc2o1" as well.
Found: > 7.00

Lookup: Please do the same for "Cc1cncc(C(=O)Nc2ccc3oc(-c4cccnc4)nc3c2)c1" as well.
Found: > 7.00

Lookup: Please do the same for "COc1ccc(COc2ccc3oc([C@@H]4Cc5ccccc5O4)nc3c2)nc1" as well.
Found: > 7.00

Lookup: Please do the same for "COc1ccc(COc2ccc3oc(N4CCc5cccnc5C4)nc3c2)nc1" as well.
Found: > 7.00

====

molecular target: Q46 protein aggregates (Homo sapiens); construct: fused on or other part: GST at the N-terminus, cut off with thrombin before the test to start aggregation; The wells held aggregated Q46 without GST; test: Q46 radioligand binding assay (RBA); details: 10 nM ligand [3H3]MK-3328
Listed here: items and their measured IC50.

COc1ccc(COc2ccc3oc(N4CCNCC4)nc3c2)nc1 | > 50 nM
COc1ccc(C(=O)Nc2ccc3oc(-c4cccc(C)c4)nc3c2)cn1 | < 100 nM
CNC(=O)c1ccc(-c2nc3cc(OCc4ccc(O)cn4)ccc3o2)cn1 | < 100 nM
O=C(Nc1ccc2oc(-c3cccnc3)nc2c1)c1cnc(-c2ccccc2)nc1 | < 100 nM
COc1cccnc1C(=O)Nc1ccc2oc(-c3cccnc3)nc2c1 | 100 to 500 nM

Lookup: For "COc1ncc(-c2ccc3oc(-c4cccnc4)nc3c2)cn1" , what is its reported IC50?
Found: 100 to 500 nM

Lookup: Please do the same for "N#Cc1cnccc1-c1cc2cc(OCc3cnn(CCO)c3)ccc2o1" as well.
Found: < 100 nM

Lookup: Please do the same for "CNC(=O)c1ccc(-c2nc3cc(OCc4ccc(OC)cn4)ccc3o2)cn1" as well.
Found: < 100 nM

Lookup: Please do the same for "Cn1cc(COc2ccc3oc(-c4cnccc4C#N)cc3c2)cn1" as well.
Found: < 100 nM

Lookup: Please do the same for "COc1ccc(COc2ccc3oc(N4CCn5cncc5C4)nc3c2)nc1" as well.
Found: < 100 nM

Lookup: Please do the same for "COc1ccc(/C=C/c2nc3cc(OCc4ccc(OC)cn4)ccc3o2)cc1" as well.
Found: < 100 nM

Lookup: Please do the same for "CNc1ccc(-c2nc3cc(OCc4ccc(OC)cn4)ccc3o2)cn1" as well.
Found: < 100 nM

Lookup: Please do the same for "CC(C)(C)OC(=O)N1CCN(c2ccc3oc(-c4cccnc4)nc3c2)CC1" as well.
Found: 100 to 500 nM

Lookup: Please do the same for "COc1ccc(COc2ccc3oc(N4Cc5cccnc5C4)nc3c2)nc1" as well.
Found: < 100 nM

Lookup: Please do the same for "COc1ccc(C#Cc2cnc3oc(-c4cccnc4)nc3c2)cc1" as well.
Found: < 100 nM

Lookup: Please do the same for "COc1ccc(COc2ccc3oc(-c4cccnc4)nc3c2)cc1" as well.
Found: < 100 nM

Lookup: Please do the same for "c1cncc(-c2nc3cc(Nc4ccncn4)ccc3o2)c1" as well.
Found: < 100 nM

Lookup: Please do the same for "COc1cnc(-c2ccc3oc(-c4cccnc4)nc3c2)nc1" as well.
Found: < 100 nM

Lookup: Please do the same for "Cn1cc(-c2nc3cc(OCc4ccc(N)cn4)cnc3o2)cn1" as well.
Found: 100 to 500 nM

Lookup: Please do the same for "Cn1ccnc1COc1ccc2oc(-c3ccncc3C#N)cc2c1" as well.
Found: 100 to 500 nM

Lookup: Please do the same for "C(#Cc1cnc2oc(-c3cccnc3)nc2c1)c1cccnc1" as well.
Found: < 100 nM

Lookup: Please do the same for "COc1ccc2c(=O)n(-c3ccc4oc(-c5cccnc5)nc4c3)ccc2c1" as well.
Found: 100 to 500 nM

Lookup: Please do the same for "COc1ncc(C(=O)Nc2ccc3oc(-c4cccc(C)c4)nc3c2)cn1" as well.
Found: < 100 nM
